We begin with a simple list: items and their reported residual activity.
- experimental-target: UniProt Q9NPD5
- experimental-parameters: chinese hamster, cho, 10 µM
The answer is to be given in %; state only the numeric part.

N[C@@H](Cc1ccc(O)c(O)c1)C(=O)O [LEVODOPA] = 90.65
C[C@@H]1[C@H](O)[C@@H](C)/C=C/C=C/C=C/C=C/C=C/C=C/C=C/[C@H](O[C@@H]2O[C@H](C)[C@@H](O)[C@H](N)[C@@H]2O)C[C@@H]2O[C@](O)(C[C@@H](O)C[C@@H](O)[C@H](O)CC[C@@H](O)C[C@@H](O)CC(=O)O[C@H]1C)C[C@H](O)[C@H]2C(=O)O [AMPHOTERICIN B] = 99.53
COc1ccccc1-c1cc(=O)c2cccc(OC)c2o1 [8,2'-DIMETHOXYFLAVONE] = 108
Cc1cc(O)cc(O)c1C(=O)O [ORSELLINIC ACID] = 86.96
CC(=O)O[C@H]1CC[C@]2(C)[C@H]3CC=C4[C@@H]5CC(C)(C)CC[C@]5(C(=O)O)CC[C@@]4(C)[C@]3(C)CC[C@H]2C1(C)C [ACETYL OLEANOLIC ACID] = 24.66

Field: residual activity (UniProt Q9NPD5). Entry: OCC(O)C(O)C(O)C(O)C(O)CO (configuration not stated) [PERSEITOL] 73.5

Field: residual activity (UniProt Q9NPD5). Entry: O=C(O)c1ccccc1Nc1cccc(C(F)(F)F)c1 [FLUFENAMIC ACID] 64.03

Field: residual activity (UniProt Q9NPD5). Entry: COC(=O)[C@H](Cc1ccccc1)NC(=O)[C@@H](N)CC(=O)O 115

Field: residual activity (UniProt Q9NPD5). Entry: Cc1cc(NS(=O)(=O)c2ccc(N)cc2)no1 [SULFAMETHOXAZOLE] 94.47

Field: residual activity (UniProt Q9NPD5). Entry: O=c1c(O)cccc2cc(O)c(O)c(O)c12 [PURPUROGALLIN] 82.24

Field: residual activity (UniProt Q9NPD5). Entry: CC(=O)O[C@H]1C[C@@H](OC(C)=O)C(C)(C)[C@@H]2C[C@@H](OC(C)=O)[C@]3(C)[C@H](CC[C@]4(C)[C@H](c5ccoc5)C(=O)[C@H]5O[C@@]534)[C@@]12C 57.61

Field: residual activity (UniProt Q9NPD5). Entry: C=CC(C1=CC(=O)C=CC1=O)c1ccccc1 (configuration not stated) [DALBERGIONE] 269.8

Field: residual activity (UniProt Q9NPD5). Entry: Cl.Oc1ccc2c3c1O[C@H]1[C@@H](O)CC[C@@]4(O)[C@@H](C2)N(CC2CCC2)CC[C@]314 [NALBUPHINE HYDROCHLORIDE] 96.59

Field: residual activity (UniProt Q9NPD5). Entry: CSCCC(NC=O)C(=O)NC(C)C(=O)O (configuration not stated) [N-FORMYLMETHIONYLALANINE] 108.8

Field: residual activity (UniProt Q9NPD5). Entry: CC(C)Cc1ccc(C(C)C(=O)O)cc1 (configuration not stated) [IBUPROFEN] 98.25

Field: residual activity (UniProt Q9NPD5). Entry: CC1(C)C=Cc2cc3ccc(=O)oc3cc2O1 [XANTHYLETIN] 85.95

Field: residual activity (UniProt Q9NPD5). Entry: Cc1cc(N)c2ccccc2[n+]1CCCCCCCCCC[n+]1c(C)cc(N)c2ccccc21.[Cl-].[Cl-] [DEQUALINIUM CHLORIDE] 111.4

---

- experimental-target: Solute carrier organic anion transporter family member 1B1 (Homo sapiens, UniProt Q9Y6L6)
- Sequence (Q9Y6L6 whole entry): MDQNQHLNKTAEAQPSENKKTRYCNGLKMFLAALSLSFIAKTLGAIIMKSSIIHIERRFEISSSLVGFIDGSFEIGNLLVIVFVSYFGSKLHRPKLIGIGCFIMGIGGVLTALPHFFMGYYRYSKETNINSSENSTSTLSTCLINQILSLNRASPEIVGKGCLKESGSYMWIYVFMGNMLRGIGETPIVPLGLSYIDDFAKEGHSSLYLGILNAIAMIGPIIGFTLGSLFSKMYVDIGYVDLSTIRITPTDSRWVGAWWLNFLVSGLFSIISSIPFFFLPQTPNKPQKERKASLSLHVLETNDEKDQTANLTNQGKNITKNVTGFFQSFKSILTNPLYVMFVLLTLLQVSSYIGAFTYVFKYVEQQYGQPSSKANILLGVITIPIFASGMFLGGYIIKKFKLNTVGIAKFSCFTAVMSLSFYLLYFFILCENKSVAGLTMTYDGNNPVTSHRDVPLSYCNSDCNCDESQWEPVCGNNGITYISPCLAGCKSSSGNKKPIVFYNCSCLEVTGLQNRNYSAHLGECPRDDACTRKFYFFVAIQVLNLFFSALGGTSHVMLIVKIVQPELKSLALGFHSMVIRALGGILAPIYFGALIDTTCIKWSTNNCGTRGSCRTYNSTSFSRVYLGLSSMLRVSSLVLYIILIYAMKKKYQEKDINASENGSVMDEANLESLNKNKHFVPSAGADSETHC
- experimental-parameters: chinese hamster, cho, 10 µM
measured-parameter: residual activity

Below are worked cases with known answers.
O=C1N=C([O-])NC1(c1ccccc1)c1ccccc1.[Na+] [PHENYTOIN SODIUM] = 95.94%
CC(=O)OC[C@@]1(O)C[C@@]23CC[C@@H]4c5ccoc5CC[C@@]4(C)[C@@H]2CC[C@@H]1C3 [CAFESTOL ACETATE] = 108.6%

Return reported residual activity; argument: Oc1ccc2c(c1)O[C@H](c1ccc(O)c(O)c1)[C@@H](O)C2 [FISETINIDOL] 74.52%

Return reported residual activity; argument: C[C@@H]1CC(Cl)CC[C@H]1C(=O)OC(C)(C)C.C[C@@H]1CCC(Cl)C[C@H]1C(=O)OC(C)(C)C (some centres undefined) 121%

---

- experimental-target: Solute carrier organic anion transporter family member 1B1 (Homo sapiens, UniProt Q9Y6L6)
- experimental-parameters: chinese hamster, cho, 10 µM
We begin with a simple list: items and their reported residual activity.
Answer as a quantity: numeral, then unit.

Below are worked cases with known answers.
CCCC(CCC)C(=O)[O-].[Na+] [VALPROATE SODIUM] = 90.61%
COc1cc2c(cc1OC)-c1cc3ccc(OC)c(OC)c3c[n+]1CC2.[Cl-] [PALMATINE CHLORIDE] = 110.1%
COc1ccc2oc(-c3ccccc3)c(OC)c(=O)c2c1 = 99.01%

We next turn to a different compound, shown below.
Return reported residual activity; argument: COC(=O)[C@]1(C)CC[C@]2(C)CC[C@]3(C)C4=CCc5c(cc(O)c(O)c5C)[C@]4(C)CC[C@@]3(C)[C@@H]2C1 70.1%

---

- experimental-target: Solute carrier organic anion transporter family member 1B1 (Homo sapiens, UniProt Q9Y6L6)
- experimental-parameters: chinese hamster, cho, 10 µM
measured-parameter: residual activity (%)
The answer is to be given in %; state only the numeric part.

Below are worked cases with known answers.
CC(C)[C@]12O[C@H]1[C@@H]1O[C@@]13[C@@]1(C)CCC4=C(COC4=O)[C@@H]1C[C@@H]1O[C@@]13C2=O [TRIPTONIDE] = 74.69
C#CCN(C)Cc1ccccc1.Cl [PARGYLINE HYDROCHLORIDE] = 99.32
C[C@@H]1O[C@H](O[C@@H]2[C@@H](O)[C@H](O[C@@H]3[C@@H](O)[C@@H](O)[C@@H](O[C@H]4[C@@H](OC(=O)[C@]56CCC(C)(C)C[C@@H]5C5=CC[C@@H]7[C@@]8(C)CC[C@H](O[C@@H]9O[C@H](CO)[C@@H](O)[C@H](O)[C@H]9O)C(C)(C)[C@@H]8CC[C@@]7(C)[C@]5(C)C[C@H]6O)OC[C@@H](O)[C@@H]4O)O[C@H]3C)OC[C@H]2O)[C@H](O)[C@H](O)[C@H]1O = 25.14

Return reported residual activity; argument: O=C(O)c1cc(O)c2cccc(O)c2n1 [XANTHURENATE] 115.8

Return reported residual activity; argument: CC(NCCC(c1ccccc1)c1ccccc1)c1ccccc1.Cl (configuration not stated) [FENDILINE HYDROCHLORIDE] 90.27

---

We begin with a simple list: items and their reported residual activity.
- experimental-target: Solute carrier organic anion transporter family member 1B3 (Homo sapiens)
- Sequence (Q9NPD5 whole entry): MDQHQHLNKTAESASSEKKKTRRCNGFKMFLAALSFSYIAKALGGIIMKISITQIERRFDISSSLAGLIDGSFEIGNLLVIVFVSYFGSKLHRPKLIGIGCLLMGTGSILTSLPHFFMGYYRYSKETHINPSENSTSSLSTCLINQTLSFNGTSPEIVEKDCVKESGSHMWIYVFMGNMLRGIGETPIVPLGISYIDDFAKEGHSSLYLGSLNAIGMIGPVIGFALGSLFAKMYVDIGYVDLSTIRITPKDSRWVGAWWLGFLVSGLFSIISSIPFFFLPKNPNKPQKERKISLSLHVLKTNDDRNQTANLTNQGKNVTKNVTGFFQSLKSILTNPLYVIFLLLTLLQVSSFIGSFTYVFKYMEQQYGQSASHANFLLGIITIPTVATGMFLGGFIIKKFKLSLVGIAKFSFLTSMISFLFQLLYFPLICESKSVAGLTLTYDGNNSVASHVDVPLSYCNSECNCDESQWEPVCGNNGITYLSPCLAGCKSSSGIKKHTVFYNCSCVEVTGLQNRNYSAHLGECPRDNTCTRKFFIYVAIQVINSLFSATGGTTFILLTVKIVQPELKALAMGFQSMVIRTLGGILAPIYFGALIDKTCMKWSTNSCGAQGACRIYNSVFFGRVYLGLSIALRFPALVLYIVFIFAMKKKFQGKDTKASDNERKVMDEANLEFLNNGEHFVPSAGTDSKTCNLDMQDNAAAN
- experimental-parameters: chinese hamster, cho, 10 µM
The answer is to be given in %; state only the numeric part.

Below are worked cases with known answers.
O=C(/C=C/c1ccc(O)c(O)c1)OCCc1ccccc1 [CAFFEIC ACID PHENETHYL ESTER] = 143.5
O=C1O[C@H](CO)[C@@H](O)[C@H](O)[C@H]1O [GLUCONOLACTONE] = 89.12
CC1CCC(NC(=O)N(CCCl)N=O)CC1 (centres undefined) [SEMUSTINE] = 100.5

Return reported residual activity; argument: CO[C@@]1(NC(=O)Cc2cccs2)C(=O)N2C(C(=O)[O-])=C(COC(N)=O)CS[C@@H]21.[Na+] [CEFOXITIN SODIUM] 82.79

Return reported residual activity; argument: CC(=O)Nc1cc([As](=O)(O)O)ccc1O [ACETARSONE] 85.71

Return reported residual activity; argument: CC(C[N+](C)(C)C)OC(N)=O.[Cl-] (centres undefined) [BETHANECHOL CHLORIDE] 100

Return reported residual activity; argument: CC(=O)Nc1ccc(OC(=O)c2ccccc2O)cc1 [ACETAMINOSALOL] 102.7

Return reported residual activity; argument: CNC(=O)O/N=C/C(C)(C)SC [ALDICARB] 80.05

Return reported residual activity; argument: CN(C)CCCN1c2ccccc2CCc2ccccc21.Cl [IMIPRAMINE HYDROCHLORIDE] 92.77
